assay: Myelosuppressive activity against Swiss mouse CFU-GM cells assessed as inhibition of cell growth and differentiation after 7 days; type: cell-based; conditions: 168 h
recorded endpoint: IC50 (µM)
Respond with the bare value in µM.

# get_value(readout='IC50', item= CC(C)=CCC/C(C)=C/CNc1ccc(O)cc1 )
460

###

assay: Toxicity against human erythrocytes assessed as disruption of cell membrane after 1 hr by haemolytic assay; format: cell-based, Erythrocyte
What IC50 at 1 hr was measured for each of the following?

So what does the record say about IC50 at 1 hr for CC(C)=CCC/C(C)=C/CNc1cc(C)nn1C ?
1.76 µg/mL

Param item = CC(C)=CCC/C(C)=C/CNc1ccccc1 ; retrieve measured IC50 at 1 hr.
< 0.419 µg/mL

Recorded IC50 at 1 hr for CC(C)=CCC/C(C)=C/CN(c1ccc(O)cc1)S(C)(=O)=O , please?
< 0.419 µg/mL

Report IC50 at 1 hr for CC(C)=CCC/C(C)=C/CNc1ccc(O)cc1 please.
< 0.419 µg/mL

Looking for the measured IC50 at 1 hr of CC(C)=CCC/C(C)=C/CNc1ccc2c(c1)OCO2 , can you help?
18.3 µg/mL

###

assay: Toxicity against human erythrocytes assessed as hemolytic rate after 1 hr by haemolytic assay; format: cell-based, Erythrocyte; conditions: read-out: Activity
recorded endpoint: hemolysis at 1 h

// query hemolysis at 1 h value for entry CC(C)=CCC/C(C)=C/CNc1ccc(O)cc1
< 5%

Consider the molecule shown here: CC(C)=CCC/C(C)=C/CNc1cc(C)nn1C What is its recorded hemolysis at 1 h?
> 5%

Return reported hemolysis at 1 h; argument: CC(C)=CCC/C(C)=C/CNc1ccc2c(c1)OCO2
< 5%

Entry under review: CC(C)=CCC/C(C)=C/CNc1ccccc1 . Reported hemolysis at 1 h?
< 5%

// hemolysis at 1 h lookup, key: CC(C)=CCC/C(C)=C/CN(c1ccc(O)cc1)S(C)(=O)=O
< 5%
